# target desc: pooled human IgG (human IgG1, 2, 3 and 4) (human); further: test concentration or dose not given here
# test details: cell-based or functional assay
Kindly state Enzyme Activity Endpoint Assay: Fab′2 for each of the entries shown.
Give bare numbers, in ng/µL.

Lab note: each binder below needs its Enzyme Activity Endpoint Assay: Fab′2 filled in.
1. PRT-402 (enzyme) MVTSVWTKGVTPPADFTQGEDVFHAPYVANQGWYDITKTFNGKDDLLCGAATAGNMLHWWFDQNKEYIEAYLKKHPEKQKIMFGDQELLDVRKAINTKGSQKNSELFNYFRDKAFPNLSARRLGVMPDLVLDMFINGYYLNVTKTQTTDVNRTYQEKDKRGGIFDAVFTRGDQSKLLTSRHDFKEKGLKEISDLIKQELTEGKALGLSHTYANVRLNHVINLWGADFDSDGNLKAIYVTDSDSNASIGMKKYFVGVNSAGKVAISAKEIKEDNIGAQVLGLFTLSTGQDIWNQTN
2. PRT-443 (enzyme) MSQTEDSESLQRLRDIEDFQAEKKKQNVVYTKWLDGVDVKDHDFRKIVDGNIAYYATPLLNGRGFYDINKDFNRDSDKCAAAVAANMFHYWLDRNRDNVDRFLRQNPEKHGIIELPDEQLKLSDFLNTYESDDGYRDKSKLFDFISNNFNGPVWTDKLLDNYINGYAYNYKYGRTIEDPTKNTSKINFFKEVFNEKILTNNHSIRNQNEFSVLLSEALYTGKAIGLSYGPAGLRHSLGHIISVWGADLDADGNVVAIYVTDSDDKKLTIGDERVGLKRYKISTDDEGRLRLTAYEETHNTGGQIRGLWTLDTGKQAWADYFDKTEQTGTDQAEQ

A.
1. 530
2. 17
